Attribution: patent US20030148958A1

- subject of test: CRF1R
- test summary: cell-based or functional assay; also: reference of the scale not given here
Ends that are not written are not given here.
// CRF1R Emax % lookup, one value per entry
measured property: CRF1R Emax % (%)

binder: NDDPPISIDLPYYLLRNMIEMARIENEREQAGLNAKYLAEV-NH2 [SEQ ID NO 267]
numeric result: 22.8
//
binder: ZGPPISIDLPLYLLRKMIEIEKQEKEKQQATTNARLLDTV (C-terminal amide) [SEQ ID NO 242]
numeric result: 99
//
binder: DNPSLSIDLPLQLLRTLLELEKTQSQRERAEQNAIIFASV-NH2 [SEQ ID NO 342]
numeric result: 19.6
//
binder: HHHHHHIVLSLDVPIGLLQILLEQARARAAREQATTNARILARN-NH2 [SEQ ID NO 296]
numeric result: 4
//
binder: DNPSLSIDLPLLLLRTLLELEKTQSQRERAEQNAQIFAQV-NH2 [SEQ ID NO 327]
numeric result: 36.5
//
binder: ZGPPISIDLPYFLLRKMIEIEKQEKEKQQAANNRLLLDTI (C-terminal amide) [SEQ ID NO 220]
numeric result: 81
//
binder: ZGPPISIDLPYYLLRKMIEIEKQEKEKQQAANNALLLATI (C-terminal amide) [SEQ ID NO 225]
numeric result: 97
//
binder: NDDPPISIDLPFYLLRNMIEMARIENEREQAGLNAKYLAEV-NH2 [SEQ ID NO 261]
numeric result: 100
//
binder: ZGPPISIDVPIGLLRKMIEIEKQEKEKQQAANNRLLLDTI (not fully specified; C-terminal amide) [SEQ ID NO 254]
numeric result: 6
//
binder: ZGPPISIDLPFQLLRKVIEIEKQEKEKQQAANNAQLLAHI (not fully specified; C-terminal amide) [SEQ ID NO 273]
numeric result: 59.3
//
binder: ZGPPISIDLPLELLRKMIEIEKQEKEKQQAANNALLLATI (C-terminal amide) [SEQ ID NO 234]
numeric result: 96
